Experiment: viability loss with induced miR-34 in A549 – imaging, A549 dox-inducible miR-34, nuclei and caspase counts, primary screen (AID 1347080)
Conditions: A549 miR-34 inducible, Hoechst nuclei count, 48 h; measured here: total cells without miR-34 induction
So basically: is cell count under 6000? Then 1. Not under? Then 0.

Worked examples follow.
Ask: API: query returns whether the molecule falls strictly under 6000 in cell count. Query: `CN1CCN(c2cccc(Nc3nc4c(-c5ccc(S(C)(=O)=O)cc5)cccn4n3)c2)CC1`
Result: 0

Ask: Next: `CC(N)=NCCCC[C@H](N)C(=O)O`
Result: 0

Ask: Next: `COc1ccc2cccc(N3CCN(CCNC(=O)c4ccc(F)cc4)CC3)c2c1`
Result: 0

Ask: Next: `c1ccc([B-]2(c3ccccc3)[NH2+]CCO2)cc1`
Result: 1

Ask: Next: `CCc1ccccc1OC[C@@H](O)CN[C@H]1CCCc2ccccc21`
Result: 1

---
Ask: API: query returns whether the molecule falls strictly under 6000 in cell count. Query: `Cc1cc(Nc2cc(CN3CCOCC3)c3nc(C)c(Cc4ccc(Cl)cc4F)n3n2)n[nH]1`
Result: 1

Ask: Next: `CC(C)n1nc(-c2ccc3oc(N)nc3c2)c2c(N)ncnc21`
Result: 1

* * *

Assay: viability loss in pontine glioma line – cell-based, JHH-DIPG-1, MIPE4.0, CellTiter-Glo, qHTS, dose response (AID 1347062);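 on AC50: cells exposed to compound for two days before readout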
Conditions: JHH-DIPG-1 viability, CellTiter-Glo ATP luminescence
Results filed as inconclusive are left out. The source made the active and inactive calls. The limit is not given here; nearly all actives have AC50 up to about 27 µM.
Please state which outcome applies, choosing from TRUE = active, FALSE = inactive

Ask: Returns: the outcome recorded for `COc1cc(N2CCC(N3CCN(C)CC3)CC2)ccc1Nc1ncc(Cl)c(Nc2ccccc2S(=O)(=O)C(C)C)n1` in this assay.
Result: TRUE

Ask: Next: `C=CC(=O)Nc1cccc(Oc2nc(Nc3ccc(N4CCN(C)CC4)cc3OC)ncc2Cl)c1`
Result: TRUE

Ask: Next: `CC(C)(C)c1cc(C(=O)O)c(NC(=O)Nc2ccc3[nH]ncc3c2)s1`
Result: FALSE

Ask: Next: `Cc1nc(N)ncc1-c1nc(N2CCOCC2)c2sc(C(C)(C)O)cc2n1`
Result: TRUE

Ask: Next: `COc1ccccc1-c1cccc(-c2c(O)c3cc(C#N)c(Cl)cc3[nH]c2=O)c1`
Result: FALSE

* * *

Test: drug combination growth inhibition, ovarian cancer – cell-based, oncology-focused library, rucaparib conditional, profiling panel (AID 1508598)
Details: patient-derived ovarian cancer cells, CellTiter-Glo viability, 144 h; at 0.0195 µM; OCI-C5x cells; without rucaparib
The source made the active and inactive calls.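 How the source made its calls: active means normalized viability below 100% at a tested concentration; inactive means the rest.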
Please state which outcome applies, choosing from true (1) for active, false (0) for inactive

Ask: Returns: the outcome recorded for `CCCS(=O)(=O)Nc1ccc(F)c(C(=O)c2c[nH]c3ncc(-c4ccc(Cl)cc4)cc23)c1F` in this assay.
Result: false (0)

Ask: Next: `COc1ccc(-n2c(SCCCN3C(=O)c4cccc5cccc(c45)C3=O)nnc2-c2ccncc2)cc1`
Result: false (0)

Ask: Next: `Cc1cn(-c2cc(NC(=O)c3ccc(C)c(Nc4nccc(-c5cccnc5)n4)c3)cc(C(F)(F)F)c2)cn1`
Result: false (0)

Ask: Next: `CCOc1ccn(-c2ccc(F)cc2)c(=O)c1C(=O)Nc1ccc(Oc2ccnc(N)c2Cl)c(F)c1`
Result: false (0)

Ask: Next: `C=CC(=O)Nc1cc(Nc2nccc(-c3cn(C)c4ccccc34)n2)c(OC)cc1N(C)CCN(C)C`
Result: false (0)

Now look at this one.
Ask: Returns: the outcome recorded for COc1ccc(COc2cc3oc(=O)c4cc(C(C)O)ccc4c3cc2OC)cc1 (centres undefined) in this assay.
Result: false (0)

* * *

Assay: growth inhibition, single agents and combos, ICB984, cell-based, cisplatin or BGB combos, synergistic combos for chromothripsis tumors (AID 1671451);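 further: cells exposed for 96 hours before readout; 0% = vehicle DMSO and 100% = killing by high DMSO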
Settings: ICB984 medulloblastoma cells, drug combinations, BGB IC40 combo, at 0.005 µM, stronger effect = higher value
inhibition values for the molecules below.
// return numeric value only (unit: %, not printed)

In the examples that follow, each entry is paired with its recorded inhibition.
Ask: Field request: inhibition | item: `CCCCc1nc2cc(/C=C/C(=O)NO)ccc2n1CCN(CC)CC`
Result: -8.13

Ask: Next: `CN(C)C/C=C/C(=O)Nc1ccc(C(=O)Nc2cccc(Nc3ncc(Cl)c(-c4c[nH]c5ccccc45)n3)c2)cc1`
Result: 98.3

Ask: Next: `COc1ccc(-n2c(SCCCN3C(=O)c4cccc5cccc(c45)C3=O)nnc2-c2ccncc2)cc1`
Result: -33.9

Ask: Next: `Cc1cn([C@@H]2O[C@H](CO)[C@@H](O)[C@@H]2F)c(=O)[nH]c1=O`
Result: -20.8

Ask: Next: `Nc1ncnc2c1c(-c1cnc3[nH]ccc3c1)nn2C1CCCC1`
Result: 0.136

Ask: Next: `CN(C)CCN1C(=O)c2cccc3cc(N)cc(c23)C1=O`
Result: -22.2

Ask: Next: `NCCOc1cc(C(=O)Nc2cc(OCCN)c3ccccc3n2)nc(C(=O)Nc2cc(OCCN)c3ccccc3n2)c1`
Result: -1.14

Ask: Next: `COc1ccc(C(=O)C2CCN(CC(=O)N(Cc3nc4c(c(=O)[nH]3)COCC4)CC3CC3)CC2)cc1`
Result: -29.7

Ask: Next: `CC(=O)[C@]1(N)Cc2c(O)c3c(c(O)c2[C@@H](O[C@H]2C[C@H](O)[C@H](O)CO2)C1)C(=O)c1ccccc1C3=O`
Result: -3.55

Ask: Next: `N=C1CCCN1Cc1[nH]c(=O)[nH]c(=O)c1Cl`
Result: -11.6

---
Ask: Field request: inhibition | item: `O=C(O)[C@H](Cc1c[nH]c2ccccc12)N1C(=O)c2ccccc2C1=O`
Result: -26.6

Ask: Next: `C[C@]12CCCN1CC1=NNC(=O)c3cc(F)cc4[nH]c2c1c34`
Result: -21.8

* * *

Experiment: viability loss in pontine glioma line – cell-based, JHH-DIPG-1, MIPE4.0, CellTiter-Glo, qHTS, dose response (AID 1347062);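 on AC50: cells exposed to compound for two days before readout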
Details: JHH-DIPG-1 viability, CellTiter-Glo ATP luminescence
Results filed as inconclusive are left out. Active and inactive are the calls of the source. Cut-off not given; nearly all actives show AC50 up to about 27 µM.
Please state which outcome applies, choosing from 1.0 = active, 0.0 = inactive

Worked examples follow.
Ask: Returns: the outcome recorded for `CC(C)(C)c1[nH]cnc1/C=c1\[nH]c(=O)/c(=C/c2ccccc2)[nH]c1=O` in this assay.
Result: 1.0

Ask: Next: `N=C1S/C(=C\c2ccc(-c3ccc4c(c3)C(=O)NC4=O)o2)C(=O)N1c1ccc(Br)cc1`
Result: 0.0

Ask: Next: `COc1cc2c(cc1OC)CC(=O)N(CCCN(C)C[C@H]1Cc3cc(OC)c(OC)cc31)CC2`
Result: 0.0

Ask: Next: `NC1(Cc2ccc(Cl)cc2)CCN(c2ncnc3[nH]ccc23)CC1`
Result: 1.0

Ask: Next: `CNC(=O)Nc1ccc(-c2nc(N3CC4CCC(C3)O4)c3cnn(C4CCC5(CC4)OCCO5)c3n2)cc1`
Result: 1.0

Ask: Next: `Cc1ccn(-c2ccc(-c3ncco3)cc2)c(=O)c1-c1ccc2nc(N)ncc2c1`
Result: 0.0

Ask: Next: Clc1ccc(COC(Cn2ccnc2)c2ccc(Cl)cc2Cl)c(Cl)c1 (stereo not given)
Result: 0.0

Ask: Next: `Cc1cnc(CNC(=O)c2c(=O)c3ccc(N4CCCN(C)CC4)nc3n3c2sc2ccccc23)cn1`
Result: 0.0

---
Ask: Returns: the outcome recorded for `Nc1nc(OCc2ccccc2)c2[nH]cnc2n1` in this assay.
Result: 0.0

Ask: Next: `C1=C/COCc2cc(ccc2OCCN2CCCC2)Nc2nccc(n2)-c2cccc(c2)OCC/1`
Result: 1.0

* * *

Assay: JHH-DIPG-1 glioma cell viability, MIPE5.0 library, CellTiter-Glo luminescence, qHTS (AID 1347067);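 further: cells exposed to compound for 48 hours before readout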
Conditions: JHH-DIPG-1 glioma viability, CellTiter-Glo ATP luminescence
Records with an inconclusive call do not appear. Calls of active or inactive are those of the source. The limit is not given here; nearly all actives have AC50 up to about 26 µM.
Please state which outcome applies, choosing from 1 (yes) for active, 0 (no) for inactive

Ask: Returns: the outcome recorded for `CC[C@@]1([C@@H]2O[C@@H]([C@H]3O[C@@](O)(CO)[C@H](C)C[C@@H]3C)C[C@@H]2C)CC[C@H]([C@]2(C)CC[C@]3(C[C@H](O)[C@@H](C)[C@@H]([C@@H](C)[C@@H](OC)[C@H](C)C(=O)O)O3)O2)O1` in this assay.
Result: 1 (yes)

Ask: Next: `CNC(=O)c1ccccc1Nc1nc(Nc2ccc3c(c2OC)CCC[C@@H](N2CCN(CCO)CC2)C3)ncc1Cl`
Result: 1 (yes)

Ask: Next: `CNC(=O)c1c(F)cccc1Nc1nc(Nc2cc3c(cc2OC)CCN3C(=O)CN(C)C)nc2[nH]ccc12`
Result: 1 (yes)

Ask: Next: `Cc1c[nH]c(/C=C2\C(=O)Nc3ccccc32)c1CCC(=O)O`
Result: 1 (yes)

Ask: Next: `COc1cc(C(N)=O)ccc1NC(=O)[C@@H]1N[C@@H](CC(C)(C)C)[C@@]2(C(=O)Nc3cc(Cl)ccc32)[C@H]1c1cccc(Cl)c1F`
Result: 1 (yes)

Ask: Next: `COC1(c2sc3c(N4CCOCC4)nc(-c4cnc(N)nc4)nc3c2C)COC1`
Result: 1 (yes)

Ask: Next: `COc1cc(N2CCC(N3CCN(C)CC3)CC2)ccc1Nc1ncnc(Nc2ccccc2S(=O)(=O)C(C)C)n1`
Result: 1 (yes)

Ask: Next: `CC(C)n1cc(-c2ccc3c(c2)N(C)CC3)c2c(NS(=O)(=O)c3ccn(C)n3)ccnc21`
Result: 0 (no)

Now look at this one.
Ask: Returns: the outcome recorded for `NC(=O)[C@H]1CCS[C@@H]2C[C@]3(CCCN3C(=O)Cc3ccc(NC(=O)COc4ccc(Cl)cc4Cl)cc3)C(=O)N12` in this assay.
Result: 1 (yes)
